These entries and their values trace back to the supplement of paper PMC12855868.

Quick reference: scaled log2 fold change of the listed items.
B1: library; numbered along this chain (parent)
chain: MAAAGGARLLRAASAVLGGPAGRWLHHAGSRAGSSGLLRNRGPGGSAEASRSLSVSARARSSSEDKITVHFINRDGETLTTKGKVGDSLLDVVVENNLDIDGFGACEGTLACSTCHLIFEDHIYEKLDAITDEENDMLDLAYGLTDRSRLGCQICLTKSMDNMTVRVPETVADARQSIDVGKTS

Variants of: B1
assayInfo: scaled log2 fold change in cell abundance, elesclomol vs control (0 = silent mean, 1 = nonsense mean) (scaled log2 ratio); higher = higher viability under elesclomol (loss of FDX1 cuproptosis function);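 also: variant abundance is its share of total variant reads in each endpoint sample, from next-generation sequencing of the integrated ORF PCR-amplified out of genomic DNA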
settings: with ABC1 FDX1 KO; elesclomol 5 nM; glucose 10 mM; 14 days
When you answer, write just the number.

A selection of reference data follows.
| variantCode | scaled log2 fold change |
| --- | --- |
| T145F | -0.258 |
| K182R | -0.345 |
| G5L | 0.0231 |

Given "A111C" , state its recorded scaled log2 fold change.
-0.264

Would you kindly share the measured scaled log2 fold change for "M163P" ?
0.859

Requested field: scaled log2 fold change. Item: "G102P"
0.0181

Look at this variant and give its reported scaled log2 fold change. "R8F"
-0.388

Would you kindly share the measured scaled log2 fold change for "C115D" ?
1.16

Value lookup for scaled log2 fold change; key = "H27K"
0.325

Which value of scaled log2 fold change has been reported for "H116K" in the records?
0.464

Dear colleague, I am looking for the recorded scaled log2 fold change of the following variant: "S14R"
0.602

scaled log2 fold change for "H27C" ?
0.145

Look up scaled log2 fold change: "R23D"
0.199

Given the entry "K66S" , report its measured scaled log2 fold change.
-0.679

Given "T170A" , state its recorded scaled log2 fold change.
-0.0897

Please give the measured scaled log2 fold change for this variant: "V69D"
1.04

Returns the measured scaled log2 fold change for the input variant. Input: "G104T"
0.997

Fill in the blank: the reported scaled log2 fold change of "C152K" is ____.
1.05

Would you kindly share the measured scaled log2 fold change for "L90D" ?
0.478

Which measured scaled log2 fold change value corresponds to "L38N" ?
0.377

Return reported scaled log2 fold change; argument: "D139W"
0.0888

Which scaled log2 fold change value is on record for "K82D" ?
-0.58

Item "L138D" has what recorded scaled log2 fold change?
1.11

Form field: reported scaled log2 fold change of "N162D"
-0.354

Record request: scaled log2 fold change value, item "C112N"
0.953
